Catalogue of MIC readings, one per entry.
- Test system: Klebsiella pneumoniae ATCC 700603
- test-name: Minimum Inhibitory Concentration (MIC), agar plate incubation, Japan Society for Chemotherapy standard method
- Format: cell-based
- protocol-conditions: Klebsiella pneumoniae, ATCC700603, read-out: Minimum Inhibitory Concentration (MIC)
Just the number in µg/mL, nothing appended.

>>> result_number("CC(C)(O/N=C(\\C(=O)N[C@@H]1C(=O)N2C(C(=O)O)=C(C[N+]3(C)[C@@H]4CC[C@H]3C[C@@H](NC(=O)c3cc(O)c(O)cc3Cl)C4)CS[C@H]12)c1csc(N)n1)C(=O)[O-] (stereo partly shown)")
0.25

INPUT: Which MIC value is on record for "CC(C)(O/N=C(\C(=O)N[C@@H]1C(=O)N2C(C(=O)O)=C(C[N@+]3(C)[C@@H]4CC[C@H]3C[C@@H](NC(=O)c3cc(F)c(O)c(O)c3F)C4)CS[C@H]12)c1csc(N)n1)C(=O)[O-]" ?
OUTPUT: 0.125

INPUT: Which MIC value is on record for CC(C)(O/N=C(\C(=O)N[C@@H]1C(=O)N2C(C(=O)O)=C(C[N+]34CCCC3(CNC(=O)c3ccc(O)c(O)c3Cl)CCC4)CS[C@H]12)c1csc(N)n1)C(=O)[O-] (stereo partly shown) ?
OUTPUT: 0.125

INPUT: Which MIC value is on record for CC(C)(O/N=C(\C(=O)N[C@@H]1C(=O)N2C(C(=O)O)=C(C[N+]3(C)[C@@H]4CC[C@H]3C[C@@H](NC(=O)c3cc(O)c(O)c(Cl)c3)C4)CS[C@H]12)c1csc(N)n1)C(=O)[O-] (stereo partly shown) ?
OUTPUT: 0.25

###

- System: Pseudomonas aeruginosa SR24
- test-name: Minimum Inhibitory Concentration (MIC), agar plate incubation, Japan Society for Chemotherapy standard method
- Assay type: cell-based
- protocol-conditions: Pseudomonas aeruginosa SR24; no enzyme, ceftazidime sensitive strain; 1000 cfu/spot; sensitive disc medium
reported-metric: Minimum Inhibitory Concentration (MIC) (µg/mL)
Just the number in µg/mL, nothing appended.

Below are worked cases with known answers.
>>> result_number("CC(ON=C(C(=O)NC1C(=O)N2C(C(=O)[O-])=C(C[N+]34CCC(CNC(=O)c5ccc(O)c(O)c5Cl)(CC3)CC4)CSC12)c1csc(N)n1)C(=O)[O-].[Na+] (stereo not shown)")
0.063
>>> result_number("CC(C)(O/N=C(\\C(=O)N[C@@H]1C(=O)N2C(C(=O)[O-])=C(C[N+]34CCC(CC3)N(C(=O)c3ccc(O)c(O)c3Cl)CC4)CS[C@H]12)c1nsc(N)n1)C(=O)[O-].[Na+]")
0.063
>>> result_number("NC(=O)CC(ON=C(C(=O)NC1C(=O)N2C(C(=O)[O-])=C(C[N+]34CCCC3CN(C(=O)c3ccc(O)c(O)c3Cl)CC4)CSC12)c1csc(N)n1)C(=O)[O-].[Na+] (stereo not shown)")
0.125

INPUT: Which Minimum Inhibitory Concentration (MIC) value is on record for Nc1nc(C(=NOC(CC(=O)[O-])C(=O)[O-])C(=O)NC2C(=O)N3C(C(=O)[O-])=C(C[N+]45CCC(CNC(=O)c6ccc(O)c(O)c6Cl)(CC4)CC5)CSC23)cs1.[Na+].[Na+] (stereo not shown) ?
OUTPUT: 0.25

INPUT: Which Minimum Inhibitory Concentration (MIC) value is on record for C[N+]1(CC2=C(C(=O)[O-])N3C(=O)[C@@H](NC(=O)/C(=N\O[C@@H](CC(=O)[O-])C(=O)[O-])c4nc(N)sc4Cl)[C@H]3SC2)[C@@H]2CC[C@H]1C[C@@H](NC(=O)c1ccc(O)c(O)c1Cl)C2.[Na+].[Na+] (stereo partly shown) ?
OUTPUT: 0.125

INPUT: Which Minimum Inhibitory Concentration (MIC) value is on record for "Nc1nc(/C(=N/O[C@@H](CC(=O)[O-])C(=O)[O-])C(=O)N[C@@H]2C(=O)N3C(C(=O)[O-])=C(C[N+]4(CCNC(=O)c5ccc(O)c(O)c5Cl)CCCC4)CS[C@H]23)cs1.[Na+].[Na+]" ?
OUTPUT: 0.063

INPUT: Which Minimum Inhibitory Concentration (MIC) value is on record for "CC(C)(O/N=C(\C(=O)N[C@@H]1C(=O)N2C(C(=O)[O-])=C(C[N+]3(CCNC(=O)c4cc(O)c(O)c(F)c4)CCCC3)CS[C@H]12)c1csc(N)n1)C(=O)[O-].[Na+]" ?
OUTPUT: 0.063
